Can you tell me growth for the items I'm about to list?
- Test system: HS 578T breast
- experiment-notes: NCI-60 one-dose screen, 48 h (100 = growth as untreated, 0 = no growth, -100 = all killed)
- run-conditions: 10 µM unless noted
About 83,000 compounds went through this panel and 20% of them were active in at least one assay; those are over-represented in the sample as a whole.
Kindly answer with a numeric value in %, unit omitted.

[ask] Consider the molecule shown here: CS(=O)c1nccc(-c2c(-c3ccc(F)c(OCCc4ccccc4)c3)nc3sccn23)n1 (centres undefined) What is its recorded growth?
[reply] 99.8

[ask] How about CCOC(=O)c1c(NC(=O)c2ccc(F)cc2F)sc2c1CCC(=O)C2 ?
[reply] 103

[ask] How about COc1cc2c3c(n(CCCNC4CCCC4)c(=O)c2cc1OC)-c1cc2c(cc1C3=O)OCO2 ?
[reply] 93.3

[ask] How about Cc1ccc(-c2csc(N/N=C/c3nc4ccccc4n3C3CC3)n2)cc1 ?
[reply] 88.5

---

Can you tell me growth for the items I'm about to list?
- System: COLO 205 colon
- experiment-notes: NCI-60 one-dose screen, 48 h (100 = growth as untreated, 0 = no growth, -100 = all killed)
- run-conditions: 10 µM unless noted
Compounds without any hit were thinned out: in the full panel of roughly 83,000, 20% have a hit.
Kindly answer with a numeric value in %, unit omitted.

[ask] Consider the compound shown here: Nc1nc(-c2cccc([N+](=O)[O-])c2)c(N=Nc2ccccc2Cl)s1 What is its recorded growth?
[reply] 93.1

[ask] How about C=CCn1c(SCC(=O)Nc2cccc(C(=O)/C=C/c3cccc([N+](=O)[O-])c3)c2)nc2ccccc2c1=O ?
[reply] 117

[ask] How about N/C(=N\c1nc2c(Cl)cccc2s1)C(Cl)(Cl)Cl ?
[reply] 51.9

[ask] How about C=CCn1c(SCC(=O)c2ccc(OC)cc2)nnc1-c1ccc(OC)cc1 ?
[reply] 98.8

[ask] How about O=C(NNc1nc2cc(F)cc(F)c2n2cccc12)c1ncccn1 ?
[reply] 16.9

[ask] How about CC(=O)C1=NN(c2ccc(Cl)cc2)C(=O)CN1C ?
[reply] 106

[ask] How about O=C1c2c(c3c4cccnc4[nH]c3c3ccc4ccccc4c23)C(=O)N1CCN1CCNCC1 ?
[reply] 81.9

[ask] How about C=CCn1c(SCC(=O)Nc2cccc(C(=O)/C=C/c3ccc(Br)cc3)c2)nc2ccccc2c1=O ?
[reply] 111

[ask] How about Oc1ccccc1-c1nnc(SCc2ccc(O)c3ncccc23)n1-c1ccccc1 ?
[reply] 34.5

[ask] How about Cc1ccc(-c2csc(N/N=C/c3nc4ccccc4n3C3CC3)n2)cc1 ?
[reply] 8.64

[ask] How about CCn1c2ccc(/C=N/OCCCN(C)C)cc2c2cc(/C=N/OCCCN(C)C)ccc21 ?
[reply] -55.6

[ask] How about O=C1Nc2cc(OC(F)(F)F)ccc2Oc2ccc(-c3ccnc(N4CC[C@H](O)C4)c3)cc21 ?
[reply] -42

[ask] How about COc1ccc([C@H]2[C@H](O)C(=O)N2c2cc(OC)c(OC)c(OC)c2)cc1Cl ?
[reply] -79.3

[ask] How about C#C[C@]1(O)CC[C@H]2[C@@H]3CC=C4c5sc(Nc6cccc(Cl)n6)nc5CC[C@]4(C)[C@H]3CC[C@@]21C ?
[reply] 34.5

[ask] How about CCCCCCCCCC[C@@H](C)[C@@H]1CC(=O)N[C@H]([C@@H](C)O)C(=O)N[C@@H](C)C(=O)N[C@H](C)C(=O)N[C@@H](CCC(N)=O)C(=O)N[C@H](Cc2ccc(O)cc2)C(=O)N[C@@H](C(C)CC)C(=O)O1 (some centres not stated) ?
[reply] 66

[ask] How about C=CCn1c(SCC(=O)Nc2cccc(C(=O)/C=C/c3ccc(Cl)cc3)c2)nc2ccccc2c1=O ?
[reply] 112

[ask] How about COc1ccc(Cn2cc3c(c2-c2cc(OC)c(OC)c(OC)c2)CCCc2cnoc2-3)cc1 ?
[reply] -0.67

[ask] How about O=C(/C=C/c1cn(-c2ccccc2)nc1-c1ccc(Cl)cc1)c1cc2ccccc2oc1=O ?
[reply] 84.9

[ask] How about CCC(CC)n1c(=O)c(SC2=NC3C(NN2)N(CC)C(=O)N3CC)c(C(=O)O)c2ccccc21 (configuration not stated) ?
[reply] -53.4

[ask] How about O=C(CCCCCCN1CC(=O)N2[C@@H](c3cccc(Br)c3)c3[nH]c4ccccc4c3C[C@H]2C1=O)NO ?
[reply] 7.27

[ask] How about COc1cc2c3c(n(CCCN4CCCC4)c(=O)c2cc1OC)-c1cc2c(cc1C3=O)OCO2 ?
[reply] -77.3

[ask] How about COc1cnc2c(c1)C(=O)c1c-2n(CCCn2ccnc2)c(=O)c2cc(OC)c(OC)cc12 ?
[reply] -85.2

[ask] How about CCc1ccc(NC(=O)N[C@@H](Cc2cccc(C)c2)C(=O)N[C@@H]2C(=O)N3CCC[C@H]3C(=O)N3CCCC[C@H]3C(=O)N[C@@H](CO)C(=O)N3C[C@H](C)C[C@H]3C(=O)O[C@H]2C)c(F)c1 ?
[reply] -36

[ask] How about CN(C)C(=O)c1ccccc1-n1cnc2ccccc2c1=O ?
[reply] 109

[ask] How about O=S(=O)(NCCCNc1nccc(-n2cnc3ccccc32)n1)c1ccc(F)cc1 ?
[reply] 86

[ask] How about O=C(/C=C/Nc1ccc(S(=O)(=O)O)cc1)c1ccc(F)cc1 ?
[reply] 101

[ask] How about C#Cc1ccc(NC(=O)c2ccc(/C=C/C(=O)c3nccn3C)cc2)c(F)c1 ?
[reply] 73

[ask] How about CCN1C(=O)N(CC)C2SC(N/N=C/c3ccc(OC)cc3)=NC21 (configuration not stated) ?
[reply] 2.66

[ask] How about COc1ccc(/C=N/Nc2nc(Nc3ccccc3)nc(Nc3ccc(S(N)(=O)=O)cc3)n2)cc1 ?
[reply] 76.9

[ask] How about Nc1nc(N)c2c(n1)NC(c1ccc(Cl)cc1)CC(c1ccc(Nc3nc(NCCO)nc(Nc4ccc(Cl)cc4)n3)cc1)=N2 (configuration not stated) ?
[reply] 67.4

[ask] How about O=C1c2c(c3c4cc(O)ccc4oc3c3[nH]c4ccccc4c23)C(=O)N1O ?
[reply] 61.5

[ask] How about COc1ccc(/C=C/C(=O)c2nnn(-c3ccc(C(=O)O)cc3)c2C)cc1OC ?
[reply] 109

---

- System: SF-295 CNS
- experiment-notes: NCI-60 one-dose screen, 48 h (100 = growth as untreated, 0 = no growth, -100 = all killed)
- run-conditions: 10 µM unless noted
This is part of a sample that, as a whole, favours compounds with a hit. Of some 83,000 tested, about 20% had one in any assay.
assay-endpoint: growth (%)
Kindly answer with a numeric value in %, unit omitted.

[ask] Consider the compound shown here: CC1OC(O[C@@H]2[C@H](O)C(CO)OC(O[C@H]3COC(O[C@H]4CC[C@]5(C)[C@H]6CC[C@]78OC[C@@]9(CC[C@](C)(C=O)C[C@H]97)C(=O)C[C@@]8(C)[C@]6(C)CC[C@H]5C4(C)C)[C@@H](O)[C@@H]3O)[C@H]2OC2OC[C@@H](O)[C@@H](O)[C@@H]2O)[C@@H](O)[C@@H](O)[C@H]1O (some centres undefined) What is its recorded growth?
[reply] 89.9

[ask] How about CCNC(=NCCCN(C)C)N/C(N)=N/c1nc2ccccc2s1 ?
[reply] 92.4

[ask] How about O=c1c2c(O)cccc2oc2c3c(cc(O)c12)O[C@H]1OC=C[C@@H]31 ?
[reply] 89.5

[ask] How about COc1cc(/C=C/C(=O)c2ccc(N3CCN(C)CC3)cc2)ccc1F ?
[reply] 92.5

---

- Tested on: SNB-19 CNS
- experiment-notes: NCI-60 one-dose screen, 48 h (100 = growth as untreated, 0 = no growth, -100 = all killed)
- run-conditions: 10 µM unless noted
- Procedure: Growth inhibition of the SNB-19 human tumor cell line is measured as a screen for anti-cancer activity. Cells are grown in 96 well plates and exposed to the test compound for 48 hours. Compounds are tested at a single concentration, which is 10^-5 M for most compounds. The reported endpoint is percent growth (GI% or GIPRCNT), where numbers from 0 - 100% represent growth inhibition, and numbers from -100% - 0 represent cell death. For example, a value of 40 represents 60% growth inhibition. […]
Compounds without any hit were thinned out: in the full panel of roughly 83,000, 20% have a hit.
Can you tell me growth for the items I'm about to list?
Kindly answer with a numeric value in %, unit omitted.

[ask] # query: growth | item CCN(CC)Cc1c(-c2cccc(OC(F)(F)F)c2)[nH]c2ccc(N3CCCC3)cc2c1=O | system: SNB-19 CNS
[reply] 90.6

[ask] How about CCOC(=O)c1nn(-c2ccc(C)cc2)c(=O)c2c(N)c(C#N)c(-c3ccc(OC)cc3)cc12 ?
[reply] 91.3

[ask] How about O=C(COc1ccc(C2SCC(=O)N2c2ccc(F)cc2)cc1)c1ccccc1 (stereo unspecified) ?
[reply] 91.5

[ask] How about Cc1ccc(-n2cc(/C=C/C(=O)c3ccc(S(C)(=O)=O)cc3)c(-c3ccc(S(C)(=O)=O)cc3)n2)cc1 ?
[reply] 89.8

[ask] How about C[C@H]1[C@H](C)CC[C@]2(COC(=O)c3cccnc3)CC[C@]3(C)C(=CC[C@@H]4[C@@]5(C)CCCNC(C)(C)[C@@H]5CC[C@]43C)[C@H]12 ?
[reply] 88.6

[ask] How about Cc1nc(-c2cc3ccccc3c(N3CCN(C)CC3)n2)cs1 ?
[reply] 90.1
